- ASSAY_OVERVIEW: Phase one study part 2: multiple dose (28 days) plasma PK of free and total DGLA
- Type: in vivo, human
- ASSAY_CONDITIONS: human, plasma, oral, 4000 mg, 4000 mg once daily; Day 1, 0 to 24 hours; read-out: tmax, median, free DGLA, baseline-corrected plasma
PROPERTY_NAME: Tmax

Any idea what its Tmax is? The compound is CCCCC/C=C\C/C=C\C/C=C\CCCCCCC(=O)O [DS107G, Dihomo gamma linolenic acid] 5 h

* * *

- ASSAY_OVERVIEW: Phase one study part 2: multiple dose (28 days) plasma PK of free and total DGLA
- Type: in vivo, human
- ASSAY_CONDITIONS: human, plasma, oral, 2000 mg, 2000 mg once daily; Day 1, 0 to 24 hours; read-out: t1/2, median, free DGLA, baseline-corrected plasma (converted)
PROPERTY_NAME: half-life (h)
Hi! Could you send only the number? It should be in h, unit omitted.

Which half-life is listed for CCCCC/C=C\C/C=C\C/C=C\CCCCCCC(=O)O [DS107G, Dihomo gamma linolenic acid] ? 4.71

* * *

- ASSAY_OVERVIEW: Phase one study part 1: single dose plasma PK of free and total DGLA, fasted
- Format: in vivo, human
- ASSAY_CONDITIONS: both sexes, human, plasma, oral, 2000 mg single dose, read-out: tmax, median, free DGLA, baseline-corrected plasma
PROPERTY_NAME: Tmax (h)
Give the number; h is assumed, so skip it.

Looking for the measured Tmax of CCCCC/C=C\C/C=C\C/C=C\CCCCCCC(=O)O [DS107G, Dihomo gamma linolenic acid] , can you help? 4

* * *

- ASSAY_OVERVIEW: Phase one study part 1: single dose plasma PK of free and total DGLA, fasted
- Format: in vivo, human
- ASSAY_CONDITIONS: both sexes, human, plasma, oral, 500 mg single dose, read-out: tmax, median, free DGLA, baseline-corrected plasma
- Procedure: A single-center, double-blind, randomized, placebo-controlled, two part Phase one study was performed in healthy male and female subjects aged 18 to 45 years inclusive. The primary objective of this study was to assess the safety and plasma pharmacokinetics (PK) of orally administered single doses and orally administered multiple doses of DS107G capsules (once daily for 28 days) in healthy subjects. […] Safety assessments were monitored throughout the study. […]
PROPERTY_NAME: Tmax (h)
# output: bare number, implied unit h

Looking for the measured Tmax of CCCCC/C=C\C/C=C\C/C=C\CCCCCCC(=O)O [DS107G, Dihomo gamma linolenic acid] , can you help? 4

* * *

- ASSAY_OVERVIEW: Phase one study part 2: multiple dose (28 days) plasma PK of free and total DGLA
- Assay type: in vivo, human
- ASSAY_CONDITIONS: human, plasma, oral, 4000 mg, 4000 mg once daily; Day 28, 0 to 168 hours; read-out: t1/2, median, free DGLA, baseline-corrected plasma (converted)
PROPERTY_NAME: half-life (h)
Numbers only; they are read as h.

So what's the measured half-life for this one? CCCCC/C=C\C/C=C\C/C=C\CCCCCCC(=O)O [DS107G, Dihomo gamma linolenic acid] 48.2

* * *

- ASSAY_OVERVIEW: Phase one study part 1: single dose plasma PK of free and total DGLA, fasted
- Assay type: in vivo, human
- ASSAY_CONDITIONS: both sexes, human, plasma, oral, 1000 mg single dose, read-out: tmax, median, free DGLA, baseline-corrected plasma
PROPERTY_NAME: Tmax

Which value of Tmax has been reported for CCCCC/C=C\C/C=C\C/C=C\CCCCCCC(=O)O [DS107G, Dihomo gamma linolenic acid] in the records? 4 h

* * *

- ASSAY_OVERVIEW: Phase one study part 2: multiple dose (28 days) plasma PK of free and total DGLA
- Format: in vivo, human
- ASSAY_CONDITIONS: human, plasma, oral, 4000 mg, 4000 mg once daily; Day 28, 0 to 168 hours; read-out: tmax, median, free DGLA, baseline-corrected plasma
PROPERTY_NAME: Tmax
Units required after the number.

Reported Tmax for CCCCC/C=C\C/C=C\C/C=C\CCCCCCC(=O)O [DS107G, Dihomo gamma linolenic acid] : what is it? 4 h

* * *

- ASSAY_OVERVIEW: Phase one study part 2: multiple dose (28 days) plasma PK of free and total DGLA
- Format: in vivo, human
- ASSAY_CONDITIONS: human, plasma, oral, 2000 mg, 2000 mg once daily; Day 28, 0 to 168 hours; read-out: tmax, median, free DGLA, baseline-corrected plasma
PROPERTY_NAME: Tmax (h)
# output: bare number, implied unit h

Record request: Tmax value, item CCCCC/C=C\C/C=C\C/C=C\CCCCCCC(=O)O [DS107G, Dihomo gamma linolenic acid] 4

Attribution: patent US20180333382A1
